- assay_procedure: melting temperature; fluorescence melt of hairpins on a sequencing array, two-state fit, raised by 9.35 °C to match UV melts
- settings: sodium 0.088 M
experimental_endpoint: Tm (°C)
Respond with the bare value in °C.

Give the reported Tm for this sequence. GCGGGAGACCGC ((((....))))
66.3

Give the reported Tm for this sequence. GCTTGCCCGAAAGGGAGC (((..(((....))))))
48.1

Give the reported Tm for this sequence. GGCGGGGGAAACTCCGCC (((((.(....).)))))
67.7

Give the reported Tm for this sequence. GGGAGGCGAAAGCCACCC (((.(((....))).)))
65.6

Give the reported Tm for this sequence. AACCTGAAAAGGTT (((((....)))))
45.5
